# system: T1, recombinant human heat shock cognate 71 kDa protein (Hsc70) (human, UniProt P11142 1-646, limits assumed)
# T1 construct: also called rhHsc70; human Hsc70
# T1 sequence (P11142 whole entry): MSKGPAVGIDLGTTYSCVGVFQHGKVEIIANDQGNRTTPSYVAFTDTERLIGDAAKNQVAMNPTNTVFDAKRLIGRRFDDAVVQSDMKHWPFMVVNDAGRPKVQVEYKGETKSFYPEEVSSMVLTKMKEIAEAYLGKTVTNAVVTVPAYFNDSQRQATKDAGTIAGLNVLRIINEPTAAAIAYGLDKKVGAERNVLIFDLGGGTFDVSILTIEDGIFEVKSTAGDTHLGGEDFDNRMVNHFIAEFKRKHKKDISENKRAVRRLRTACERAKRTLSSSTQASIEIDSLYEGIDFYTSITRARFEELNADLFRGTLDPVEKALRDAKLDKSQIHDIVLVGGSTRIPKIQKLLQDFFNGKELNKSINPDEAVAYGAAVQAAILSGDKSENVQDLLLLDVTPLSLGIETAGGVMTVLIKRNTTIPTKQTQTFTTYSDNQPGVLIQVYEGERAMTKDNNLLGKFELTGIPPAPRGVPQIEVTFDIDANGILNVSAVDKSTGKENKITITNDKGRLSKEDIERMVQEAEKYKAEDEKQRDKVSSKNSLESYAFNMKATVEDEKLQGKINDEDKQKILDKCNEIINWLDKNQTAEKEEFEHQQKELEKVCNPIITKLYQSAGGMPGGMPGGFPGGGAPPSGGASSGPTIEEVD
# experimental_protocol: SEC of peptide-Hsc70 mixture; peptide:Hsc70 molar ratio 4:1
Percent complexation with Hsc70 by entry:
// note: answer is a bare numeric in %

Reference set (2 entries):
{"columns": ["binder", "unit_info", "assay_result"],
 "data": [
  ["FFRKNWLKLWK (Synthetic peptide) [PEP058]", "%", 83.9],
  ["FFRKNWLKLRW (Synthetic peptide) [PEP057]", "%", 88.3]
]}

Note Percent complexation with Hsc70 for the binder shown: FFRKNLLRLTG (Synthetic peptide) [PEP001]
90.1
